The origin of these recorded values is patent US20210292393A1.

As shown below, each of these binders has a reported median fluorescence fold over isotype control value.
target.under.test: SARS-CoV-2 full length spike protein, V483A mutant (SARS-CoV-2, UniProt P0DTC2 14-1273)
measure.name: median fluorescence fold over isotype control (fold over isotype)

>>> numeric_value("antibody 431 (antibody, V domains shown) VH: QVQLVESGGGVVQPGRSLRLSCAASGFTFSSYAMHWVRQAPGKGLEWLAVISYDGSNKYYADSVKGRFTISRDNSKNTLYLQMNSLRAEDTAVYYCARSFRGGYYYGMDVWGQGTTVTVSS VL: DIQLTQSPSFLSASVGDRVTITCRASQGISSYLAWYQQKPGKAPKLLIYAASTLQSGVPSRFSGSGSGTEFTLTISSLQPEDFATYYCQQLNSYPLFTFGPGTKVDIK")
11.7
>>> numeric_value("antibody 423 (antibody, V domains shown) VH: EVQLVESGGGLIQPGGSLRISCAASGFTVRNNHMSWVRQAPGKGLEWVSVFYRGGTTYYADSVKGRFTISRDDSKNTVDLQMNSLRGEDTAVYYCARGLSVAASGYFDCWGQGTLVTVSS VL: DIQMTQSPSSVSASVGDTVTITCRANQGISSWLAWYQQVPGKAPELLIYATSTLQSGVPSRFSGSGSGTDFTLTISSLQPEDFATYYCQQANSFPFTFGPGTKVDIK")
15.3
>>> numeric_value("antibody 454 (antibody, V domains shown) VH: QVQLVQSGAEVKKPGASLKVSCKASGYIFTGYYMHWVRQAPGQGLEWMGWISPNSGGTKYAQKFQGRVTMTRDTSISTAYMELSRLRSDDSAVYYCAREPYYDILTGYYTPRRYLDYWGQGTLVTVSS VL: QSALTQPASVSGSPGQSITISCTGTSSDVGDYNYVSWYQQHPGKVPKLMIYDVSHRPSGVTNRFSGSKSGNTASLTISGLRAEDEADYYCSSYTSSSTYVFGTGTKVTVL")
19.7
